- Target system: human AXL Ig1 domain fused to human Fc (Homo sapiens, UniProt P30530)
- Assay remarks: BLI

>  <Binder>
tilvestamab scFv-osmY L102Y (scFv, V domains shown) VH: EVQLVESGGGLVQPGGSLRLSCAASGYSFTDFYINWVRQAPGKGLEWVARIFPGGDNTYYNEKFKGRFTLSADTSKSTAYLQMNSLRAEDTAVYYCARRGYYYAMDYWGQGTLVTVSS VL: DIQMTQSPSSLSASVGDRVTITCRSSQSLVHSNGIPYLHWYQQKPGKAPKLLIYRVSNRFSGVPSRFSGSGSGTDFTLTISSLQPEDFATYYCSQGTHVPPTFGQGTKVEIK

>  <binding result>
binds

$$$$
>  <Binder>
tilvestamab scFv-osmY L102T (scFv, V domains shown) VH: EVQLVESGGGLVQPGGSLRLSCAASGYSFTDFYINWVRQAPGKGLEWVARIFPGGDNTYYNEKFKGRFTLSADTSKSTAYLQMNSLRAEDTAVYYCARRGTYYAMDYWGQGTLVTVSS VL: DIQMTQSPSSLSASVGDRVTITCRSSQSLVHSNGIPYLHWYQQKPGKAPKLLIYRVSNRFSGVPSRFSGSGSGTDFTLTISSLQPEDFATYYCSQGTHVPPTFGQGTKVEIK

>  <binding result>
binds

$$$$
>  <Binder>
tilvestamab scFv-osmY F33T (scFv, V domains shown) VH: EVQLVESGGGLVQPGGSLRLSCAASGYSFTDTYINWVRQAPGKGLEWVARIFPGGDNTYYNEKFKGRFTLSADTSKSTAYLQMNSLRAEDTAVYYCARRGLYYAMDYWGQGTLVTVSS VL: DIQMTQSPSSLSASVGDRVTITCRSSQSLVHSNGIPYLHWYQQKPGKAPKLLIYRVSNRFSGVPSRFSGSGSGTDFTLTISSLQPEDFATYYCSQGTHVPPTFGQGTKVEIK

>  <binding result>
binds

$$$$
